# Lookup of reported composite z-score keyed by entry
# assay target: Torsin-1A-interacting protein 1 (Homo sapiens) (UniProt Q5JTV8)
# Sequence (Q5JTV8 whole entry, looked up): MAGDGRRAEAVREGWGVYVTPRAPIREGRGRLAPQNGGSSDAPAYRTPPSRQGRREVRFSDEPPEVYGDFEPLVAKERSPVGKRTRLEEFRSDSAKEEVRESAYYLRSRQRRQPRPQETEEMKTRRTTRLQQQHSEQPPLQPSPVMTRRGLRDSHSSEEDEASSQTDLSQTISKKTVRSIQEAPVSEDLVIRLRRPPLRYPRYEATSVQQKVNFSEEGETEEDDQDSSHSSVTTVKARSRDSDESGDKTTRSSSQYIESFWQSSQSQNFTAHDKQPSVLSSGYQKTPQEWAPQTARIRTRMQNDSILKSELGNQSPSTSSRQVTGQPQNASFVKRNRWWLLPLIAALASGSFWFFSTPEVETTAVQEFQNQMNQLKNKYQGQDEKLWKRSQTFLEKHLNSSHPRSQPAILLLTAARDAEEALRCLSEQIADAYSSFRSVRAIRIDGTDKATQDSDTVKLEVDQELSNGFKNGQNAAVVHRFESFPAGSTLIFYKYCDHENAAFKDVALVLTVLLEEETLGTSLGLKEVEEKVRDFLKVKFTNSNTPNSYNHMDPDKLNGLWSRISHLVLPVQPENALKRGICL
# measurement notes: compound microarray binding of lysate hLAP1 – cell lysate, small-molecule microarray, COS7 lysate, 635/667 nm fluorescence, primary screen (AID 1116)
# measurement parameters: 635 nm fluorescence, higher = more signal
measurement label: composite z-score

{"columns": ["molecule", "measurement label", "endpoint result"],
 "data": [
  ["COc1ccc(NC(=O)O[C@H]2[C@H](OC(=O)c3cc4ccccc4[nH]3)[C@@H](OC(=O)c3cc4ccccc4[nH]3)[C@@H](OC)O[C@@H]2CO)cc1", "composite z-score", 1.04],
  ["[N-]=[N+]=Nc1ccccc1C[C@@]1(C(=O)N2CCCCC2)N=C(c2ccc(OCCCO)cc2)O[C@@H]1c1ccccc1", "composite z-score", 1.52],
  ["O=C(O)[C@H]1C[C@H]2C(=O)N3CCC[C@H]3C(=O)N2[C@H]1c1ccc(O)cc1", "composite z-score", 0.319],
  ["O=C1NC(=O)C2C1C=CC(C(O)c1ccc(I)cc1)N2Nc1ccc(Cl)cc1Cl (stereo not drawn)", "composite z-score", 1.05],
  ["O=C1OCCC=C[C@H]2OC34C=CCN(c5ccc(Cl)cc5)C(=O)[C@H]3N(CCCO)C(=O)[C@@H]4C12 (stereo partly drawn)", "composite z-score", -0.421],
  ["COc1ccccc1CN1C(=O)c2ccccc2[C@@]2(Cc3ccccc3N(CCCN(C)C)C2=O)[C@@H]1c1ccc(CO)cc1", "composite z-score", 0.0163],
  ["COc1cc2c(cc1O)C(c1cccs1)N(Cc1cccc(OC(F)(F)F)c1)CC2 (stereo not drawn)", "composite z-score", 0.0117],
  ["O=C1O[C@H](c2ccccc2)[C@H](c2ccccc2)N2[C@H]1[C@@H](C(=O)NC[C@H](O)c1ccccc1)[C@]1(C(=O)Nc3ccc(C#CC4=CCCCC4)cc31)[C@H]2c1ccccc1OCCO", "composite z-score", 1.02]
]}

---

# Lookup of reported composite z-score keyed by entry
# measurement notes: probe aNOTCH3 binding on compound microarray – biochemical, small-molecule microarray, 635/667 nm fluorescence, primary screen (AID 1120);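 note: probe is a biotin-tagged antibody raised against NOTCH3 rather than NOTCH3 protein; score merges spot fluorescence near 667 nm with spot signal to noise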
# measurement parameters: higher = more signal

{"columns": ["molecule", "composite z-score"],
 "data": [
  ["NCCCCCNC(=O)[C@H]1C[C@H]2C(=O)N[C@@H](Cc3ccccc3)C(=O)N2[C@H]1c1cccc(OCCO)c1", 0.144],
  ["COCC(=C=CC[C@H](O)c1cccc(OCCO)c1)C[C@H](O)c1cc(Cl)cc(Cl)c1O", -0.0343],
  ["C=CCNC(=O)[C@@H]1[C@H]2C(=O)O[C@H](c3ccccc3)[C@H](c3ccccc3)N2[C@H](c2ccc(OCCO)cc2)[C@@]12C(=O)N(C(=O)OCCOC)c1ccc(C#CCC(C(=O)OC)C(=O)OC)cc12", 0.199],
  ["NCCCCCNC(=O)[C@H]1C[C@H]2C(=O)N3CCC[C@H]3C(=O)N2[C@H]1c1ccc(O)cc1", 0.489],
  ["COc1ccc(CCNC(=O)[C@@]2(c3ccc([N+](=O)[O-])cc3)CC(=O)N(CC34CC5CC(CC(C5)C3)C4)[C@@H]2c2ccc(CO)cc2I)cc1", -0.332],
  ["O=C(CS)NCCCCCNC(=O)[C@H]1C[C@H]2C(=O)NCC(=O)N2[C@H]1c1ccc(O)cc1", -0.372],
  ["CC(c1ccccc1)C(O)C1C=CC2C(=O)N(c3ccccc3)C(=O)C2N1Nc1ccccc1 (stereo not given)", 0.298],
  ["[N-]=[N+]=Nc1ccccc1C[C@]1(C(=O)NCC(O)CO)N=C(c2ccc(OCCCO)cc2)O[C@H]1c1ccccc1 (stereo not given in full)", 0.298],
  ["CN(C)C(=O)[C@]1(Cc2ccccc2)N=C(c2ccc(OCCCO)cc2)O[C@@H]1c1ccccc1N=[N+]=[N-]", 0.23],
  ["O[C@@H](Cc1ccccc1)[C@@H](/C=C/C1CC1)NCc1cccc(Cl)c1", -0.272],
  ["CC(C)=CCCC(C)=CC(O)C1C=CC2C(=O)N(c3ccccc3)C(=O)C2N1Nc1ccc(C(C)C)cc1 (stereo not given)", 0.282],
  ["CC(C)(C)OC(=O)CC[C@]1(C(N)=O)N=C(c2ccc(OCCCO)cc2)O[C@H]1c1ccccc1", 0.405],
  ["CO[C@H]1O[C@H](CO)[C@@H](OC(=O)Nc2ccccc2-c2ccccc2)[C@H](OC(=O)Nc2ccccc2-c2ccccc2)[C@@H]1OC(=O)Nc1ccccc1-c1ccccc1", 0.0904],
  ["O=C1C[C@@](C(=O)NCc2ccccc2)(c2ccc([N+](=O)[O-])cc2)[C@@H](c2ccc(CO)cc2)N1CC12CC3CC(CC(C3)C1)C2", -0.128],
  ["COc1ccc(-c2cc3c(c(Cc4ccccc4)n2)[Si](C(C)C)(C(C)C)OC3)cn1", 0.0596]
]}
